meta.source: patent US20250382363A1

Target Or System: T1, human a-Mesothelin (Acro Biosystems; MSN_H5223) (human, UniProt Q13421 296-580, limits assumed)
T1 construct: Bought protein immobilised on the SPR chip; Printed as 'a-Mesothelin' but used as the antigen for the anti-MSLN scFvs; also called Human MSLN; MSLN
T1 sequence (Q13421 other isoform, or with tags, fused parts or gaps limits assumed): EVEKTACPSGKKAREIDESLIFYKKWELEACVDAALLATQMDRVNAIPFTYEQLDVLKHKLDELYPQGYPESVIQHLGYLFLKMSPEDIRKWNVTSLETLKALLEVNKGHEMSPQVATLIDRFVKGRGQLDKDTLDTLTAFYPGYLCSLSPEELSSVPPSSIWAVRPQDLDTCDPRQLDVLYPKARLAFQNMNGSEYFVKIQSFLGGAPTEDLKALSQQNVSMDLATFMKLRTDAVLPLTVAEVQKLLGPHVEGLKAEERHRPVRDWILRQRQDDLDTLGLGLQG
Test Details: SPR, mesothelin immobilised, scFv analyte, 1:1 fit
What pKd was measured for each of the following?
A value of pKd is the negative decimal logarithm of a concentration given in moles per litre.

Noted for PRO2932 (scFv 54-21-H03-sc01_(L144A, S148N)) (scFv, PRO1922 variant; VH substitutions, AHo numbering; also called PRO1922 L144A-S148N) scFv: DIQMTQSPSSLSASVGDRVTITCQASESIYSSLAWYQQKPGKAPKLLIYLASTLASGVPSRFSGSGSGTDFTLTISSLQPEDFATYYCQSTDYTTSTHRNSFGTGTKVTVLGGGGGSGGGGSGGGGSGGGGSEVQLVESGGGLVQPGGSLRLSCAASGFSFSTTYYMCWVRQAPGKGLEWIGCTNTASSVRTYYATWAKGRFTISRDNSKNTVYLQMNSLRAEDTAVYYCARDMGFADYALNLWGQGTAVTVNS : its pKd reads 8.68

The binder listed as PRO2944 (scFv 54-21-H03-sc01_(T146Q)) (scFv, PRO1922 variant; VH substitution, AHo numbering; also called PRO1922 T146Q) scFv: DIQMTQSPSSLSASVGDRVTITCQASESIYSSLAWYQQKPGKAPKLLIYLASTLASGVPSRFSGSGSGTDFTLTISSLQPEDFATYYCQSTDYTTSTHRNSFGTGTKVTVLGGGGGSGGGGSGGGGSGGGGSEVQLVESGGGLVQPGGSLRLSCAASGFSFSTTYYMCWVRQAPGKGLEWIGCTNTASSVRTYYATWAKGRFTISRDNSKNTVYLQMNSLRAEDTAVYYCARDMGFADYALNLWGQGTLVQVSS shows pKd equal to 8.74

Entry PRO3348 (scFv 54-21-H03-sc01_(T101K, T146D)) (scFv, PRO1922 variant; VH substitutions, AHo numbering; also called PRO1922 T101K-T146D) scFv: DIQMTQSPSSLSASVGDRVTITCQASESIYSSLAWYQQKPGKAPKLLIYLASTLASGVPSRFSGSGSGTDFTLTISSLQPEDFATYYCQSTDYTTSTHRNSFGTGTKVTVLGGGGGSGGGGSGGGGSGGGGSEVQLVESGGGLVQPGGSLRLSCAASGFSFSTTYYMCWVRQAPGKGLEWIGCTNTASSVRTYYATWAKGRFTISRDNSKNTVYLQMNSLRAEDKAVYYCARDMGFADYALNLWGQGTLVDVSS — recorded pKd = 8.60
